cell binding (FOB) overview
Measured On: T1, human TREM2 expressed on cells (human, UniProt Q9NZC2 19-230)
T1 construct: BW5147.G.1.4 cells stably expressing human TREM2 together with Dap12, or endogenous TREM2 of primary human myeloid cells; also called huT2 BW; hTREM2 expressing cell line
T1 sequence: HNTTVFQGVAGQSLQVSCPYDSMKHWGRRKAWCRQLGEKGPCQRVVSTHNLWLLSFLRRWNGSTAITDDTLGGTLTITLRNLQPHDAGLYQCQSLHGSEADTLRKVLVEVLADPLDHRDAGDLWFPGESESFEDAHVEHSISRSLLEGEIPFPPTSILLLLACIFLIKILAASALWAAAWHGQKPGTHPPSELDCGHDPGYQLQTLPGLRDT
Assay Summary: FACS, hTREM2 BW cells
Measurement Name: cell binding (FOB)

1. AL2p-h42 (antibody, human IgG1, V domains shown, humanized, human IgG1; Fab and IgG formats under one id) VH: QVQLVQSGAEVKKPGASVKVSCKASGYAFSSSWMNWVRQAPGQRLEWMGRIYPGDGDTNYAQKFQGRVTITRDTSASTAYMELSSLRSEDTAVYYCARLLRNQPGESYAMDYWGQGTLVTVSS VL: DVVMTQTPLSLSVTPGQPASISCRSSQSLVHSNGYTYLHWYLQKPGQSPQLLIYKVSNRFSGVPDRFSGSGSGTDFTLKISRVEAEDVGVYYCSQSTRVPYTFGQGTKLEIK | 79 FOB
2. AL2p-h90 (antibody, human IgG1, V domains shown, humanized, human IgG1; Fab and IgG formats under one id) VH: QVQLVQSGAEVKKPGASVKVSCKASGYAFSSSWMNWVRQAPGQRLEWIGRIYPGDGDTNYAQKFQGRVTITADTSASTAYMELSSLRSEDTAVYYCARLLRNQPGESYAMDYWGQGTLVTVSS VL: DVQMTQSPSSLSASVGDRVTITCRSSQSLVHSNGYTYLHWYQQKPGKSPKLLIYKVSNRFSGVPSRFSGSGSGTDFTLTISSLQPEDFATYYCSQSTRVPYTFGGGTKVEIK | 126 FOB
3. AL2p-h77 (antibody, human IgG1, V domains shown, humanized, human IgG1; Fab and IgG formats under one id; also called A2p-h77) VH: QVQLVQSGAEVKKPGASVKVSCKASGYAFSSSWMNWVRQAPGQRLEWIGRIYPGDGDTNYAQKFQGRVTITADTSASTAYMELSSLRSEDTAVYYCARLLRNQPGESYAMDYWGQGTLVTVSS VL: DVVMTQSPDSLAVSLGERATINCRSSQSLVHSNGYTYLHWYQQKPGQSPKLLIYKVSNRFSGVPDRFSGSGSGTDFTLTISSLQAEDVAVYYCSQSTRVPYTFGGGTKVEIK | 83 FOB
